The reported measurements were obtained from patent US8895744B2.

# system.tested: BaF3 cells transformed with the oncogenic fusion protein NPM/ALK (Homo sapiens, UniProt Q9UM73)
# Construct: fused on or other part: P06748 (Nucleophosmin)
# Sequence (Q9UM73 whole entry, change not shown, the tested form may be a part): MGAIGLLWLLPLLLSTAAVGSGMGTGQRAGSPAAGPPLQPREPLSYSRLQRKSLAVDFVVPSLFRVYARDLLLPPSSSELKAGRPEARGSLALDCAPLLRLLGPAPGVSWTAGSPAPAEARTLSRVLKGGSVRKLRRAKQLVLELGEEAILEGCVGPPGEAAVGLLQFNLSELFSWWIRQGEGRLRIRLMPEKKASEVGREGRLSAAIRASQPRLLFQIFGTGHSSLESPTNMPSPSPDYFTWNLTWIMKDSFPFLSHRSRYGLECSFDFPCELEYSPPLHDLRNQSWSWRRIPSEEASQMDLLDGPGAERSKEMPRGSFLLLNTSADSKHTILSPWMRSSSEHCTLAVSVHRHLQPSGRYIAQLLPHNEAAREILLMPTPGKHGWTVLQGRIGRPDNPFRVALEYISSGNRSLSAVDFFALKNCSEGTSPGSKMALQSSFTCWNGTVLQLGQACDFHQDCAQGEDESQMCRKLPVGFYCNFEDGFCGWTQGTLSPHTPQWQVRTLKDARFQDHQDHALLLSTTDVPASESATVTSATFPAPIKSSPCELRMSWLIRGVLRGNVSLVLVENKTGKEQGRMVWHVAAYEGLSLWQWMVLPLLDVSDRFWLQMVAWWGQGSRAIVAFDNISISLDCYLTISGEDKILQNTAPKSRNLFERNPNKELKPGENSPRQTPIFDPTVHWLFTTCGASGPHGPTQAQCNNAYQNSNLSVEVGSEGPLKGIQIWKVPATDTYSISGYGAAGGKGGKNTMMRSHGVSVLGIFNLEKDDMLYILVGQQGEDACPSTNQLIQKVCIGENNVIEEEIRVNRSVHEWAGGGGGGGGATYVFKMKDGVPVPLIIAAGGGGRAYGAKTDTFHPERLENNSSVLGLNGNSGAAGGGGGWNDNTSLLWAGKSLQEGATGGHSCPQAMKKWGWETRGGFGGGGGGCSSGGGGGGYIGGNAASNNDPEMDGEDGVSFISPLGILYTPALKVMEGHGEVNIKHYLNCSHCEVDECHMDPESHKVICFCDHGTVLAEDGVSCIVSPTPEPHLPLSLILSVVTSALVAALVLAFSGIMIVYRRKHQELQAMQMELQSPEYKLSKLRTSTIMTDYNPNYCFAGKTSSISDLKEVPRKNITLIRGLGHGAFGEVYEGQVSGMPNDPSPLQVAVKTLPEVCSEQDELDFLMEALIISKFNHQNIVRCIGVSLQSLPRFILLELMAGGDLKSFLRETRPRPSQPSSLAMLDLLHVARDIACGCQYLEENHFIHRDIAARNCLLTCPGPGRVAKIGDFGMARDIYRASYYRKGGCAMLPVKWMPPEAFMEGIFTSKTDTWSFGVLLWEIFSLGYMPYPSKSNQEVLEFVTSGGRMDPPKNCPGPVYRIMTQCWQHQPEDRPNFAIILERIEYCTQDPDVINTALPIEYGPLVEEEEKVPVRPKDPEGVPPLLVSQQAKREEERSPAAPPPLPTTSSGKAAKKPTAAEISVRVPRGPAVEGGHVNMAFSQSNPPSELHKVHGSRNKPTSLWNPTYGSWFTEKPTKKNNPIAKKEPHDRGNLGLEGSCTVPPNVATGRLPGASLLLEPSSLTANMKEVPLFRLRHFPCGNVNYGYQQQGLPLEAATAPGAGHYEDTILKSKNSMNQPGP
# test.name: Tritiated thymidine uptake cell proliferation assay, BaF3 NPM/ALK
# Assay type: cell-based
# reported.conditions: 3[H]-thymidine uptake, 72 h; read-out: BaF NPM/ALK IC50
reported.metric: GI50 (µM)

- compound: "CCN(CC)CCCOc1ccc(-c2ccc3[nH]c4ncc(C=Cc5ccccc5)cc4c3c2)cc1 [R340]"
  GI50 [µM]: 1.2
- compound: "C(=C\\c1ccc2c(n1)[nH]c1ccccc12)/c1ccccc1 [R300]"
  GI50 [µM]: 80

I. CN1CCN(C(=O)CCC(=O)c2ccc3[nH]c4ncc(Cl)cc4c3c2)CC1 [R303]
II. Clc1cnc2[nH]c3ccc(-c4ccc(N5CCOCC5)cn4)cc3c2c1 [R308]
III. CN1CCN(CCOc2ccc(-c3ccc4[nH]c5ncc(Cl)cc5c4c3)cc2)CC1 [R347]
IV. c1coc(-c2ccnc3[nH]c4ccccc4c23)c1 [R327, 4-(furan-2-yl)-9H-pyrido[2,3-b]indole]
Hey, quick one: sort these by GI50, largest value first please. Labels, requested order.
II, IV, I, III

* * *

Listed here are compounds together with their documented pIC50.
# Test system: parent untransformed BaF3 cells
# test.name: Tritiated thymidine uptake cell proliferation assay, parental BaF3 (control)
# Type: cell-based
# reported.conditions: Mus musculus, 3[H]-thymidine uptake, 72 h, medium with IL-3, read-out: BaF parental IC50
As a rule, pIC50 stands for the negative log10 of the concentration, concentration in M.

- compound: "O=C(CSc1ccccc1)c1ccc2[nH]c3nc(Cl)ccc3c2c1"
  pIC50: 4.60
- compound: "c1ccc(CCc2ccc3[nH]c4ncc(-c5ccc6c(c5)OCO6)cc4c3c2)cc1"
  pIC50: 4.57
- compound: "O=C(CSc1nc2ccccc2[nH]1)c1ccc2[nH]c3ncc(Cl)cc3c2c1"
  pIC50: 6.05
- compound: "CCN(CC)CCCOc1ccc(-c2ccc3[nH]c4ncc(/C=C/c5ccccc5)cc4c3c2)cc1"
  pIC50: 6.40
- compound: "CCN(CC)CCSCC(=O)c1ccc2[nH]c3ncc(Cl)cc3c2c1"
  pIC50: 5.44

For the record O=C(CSc1ccccn1)c1ccc2[nH]c3ncccc3c2c1 , what value of pIC50 is listed for parent untransformed BaF3 cells?
4.72

Can you check O=C(CSc1nc2ccccc2s1)c1ccc2[nH]c3ncc(Cl)cc3c2c1 next?
4.85

Can you check O=[N+]([O-])/C=C/c1ccc2[nH]c3ncc(Cl)cc3c2c1 next?
5.47

Can you check O=[N+]([O-])c1cccc(-c2cnc3[nH]c4ccccc4c3c2)c1 [R328, 3-(3-nitrophenyl)-9H-pyrido[2,3-b]indole] next?
5.17

Can you check O=C(CBr)c1ccc2[nH]c3ncccc3c2c1 next?
4.89

* * *

# system.tested: Recombinant Ret protein (Homo sapiens, UniProt P07949)
# Sequence (P07949 29-1114): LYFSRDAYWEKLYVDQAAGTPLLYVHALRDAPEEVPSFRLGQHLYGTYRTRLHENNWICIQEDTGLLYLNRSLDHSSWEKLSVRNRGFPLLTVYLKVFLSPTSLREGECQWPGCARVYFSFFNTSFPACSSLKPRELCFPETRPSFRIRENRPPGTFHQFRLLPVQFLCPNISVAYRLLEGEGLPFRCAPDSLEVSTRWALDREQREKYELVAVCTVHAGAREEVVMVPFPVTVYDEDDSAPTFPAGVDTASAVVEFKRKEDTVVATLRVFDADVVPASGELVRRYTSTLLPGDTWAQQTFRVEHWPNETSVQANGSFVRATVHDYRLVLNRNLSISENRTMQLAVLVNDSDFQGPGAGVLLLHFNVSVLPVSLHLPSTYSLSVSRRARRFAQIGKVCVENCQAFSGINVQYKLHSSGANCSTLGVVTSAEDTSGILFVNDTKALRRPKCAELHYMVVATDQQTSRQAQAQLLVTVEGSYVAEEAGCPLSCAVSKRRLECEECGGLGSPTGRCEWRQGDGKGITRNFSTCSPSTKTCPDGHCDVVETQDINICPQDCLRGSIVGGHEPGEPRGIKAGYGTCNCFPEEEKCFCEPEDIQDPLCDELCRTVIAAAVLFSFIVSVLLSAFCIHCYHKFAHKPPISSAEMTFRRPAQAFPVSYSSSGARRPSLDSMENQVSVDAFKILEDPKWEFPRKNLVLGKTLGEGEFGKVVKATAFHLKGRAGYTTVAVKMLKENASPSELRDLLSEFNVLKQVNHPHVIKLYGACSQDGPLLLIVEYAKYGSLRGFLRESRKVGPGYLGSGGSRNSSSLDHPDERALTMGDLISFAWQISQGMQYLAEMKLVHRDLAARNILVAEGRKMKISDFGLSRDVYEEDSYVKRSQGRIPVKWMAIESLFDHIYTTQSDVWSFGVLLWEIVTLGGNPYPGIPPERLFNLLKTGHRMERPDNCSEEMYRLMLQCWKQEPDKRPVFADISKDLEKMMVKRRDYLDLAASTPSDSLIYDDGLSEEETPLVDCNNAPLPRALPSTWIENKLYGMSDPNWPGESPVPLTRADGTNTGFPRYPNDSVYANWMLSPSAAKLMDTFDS
# test.name: RET kinase inhibitory activity, ELISA-based in vitro kinase assay
# reported.conditions: purified Ret, 0.3 mM ATP
pIC50: −log10 of the molar value.
reported.metric: pIC50

- compound: "COc1ccc(-c2ccc3c(n2)[nH]c2ccccc23)cc1 [R299]"
  system.tested: "Recombinant Ret protein (Homo sapiens, UniProt P07949)"
  reported.metric: "pIC50"
  reported.measurement: 5.39
- compound: "O=C(CSc1ccccc1)c1ccc2[nH]c3nc(Cl)ccc3c2c1 [R306]"
  system.tested: "Recombinant Ret protein (Homo sapiens, UniProt P07949)"
  reported.metric: "pIC50"
  reported.measurement: 5.89
- compound: "COc1ccc(-c2ccc3[nH]c4ncccc4c3c2)cc1 [R268]"
  system.tested: "Recombinant Ret protein (Homo sapiens, UniProt P07949)"
  reported.metric: "pIC50"
  reported.measurement: 5.48

P. O=C(CSCCOc1ccccc1)c1ccc2[nH]c3ncc(Cl)cc3c2c1 [R280]
Q. COc1ccc(-c2cnc3[nH]c4ccccc4c3c2)cc1 [R278]
R. O=C(CSc1ccccn1)c1ccc2[nH]c3ncc(Cl)cc3c2c1 [R272]
Hey, quick one: sort these by pIC50, largest value first please. Labels, requested order.
Q, P, R
(Q: 6.00, P: 5.44, R: 4.72)

1. O=[N+]([O-])/C=C/c1ccc2[nH]c3ncc(Cl)cc3c2c1 [R266]
2. O=C(NCCc1ccc2[nH]c3ncc(Cl)cc3c2c1)c1ccccc1 [R265]
Compare reported pIC50 values for 1 and 2 . Which is lower? Kindly state the label of the option you pick.
2

* * *

# Tested on: parent untransformed BaF3 cells
# test.name: Tritiated thymidine uptake cell proliferation assay, parental BaF3 (control)
# Assay type: cell-based
# reported.conditions: Mus musculus, 3[H]-thymidine uptake, 72 h, medium with IL-3, read-out: BaF parental IC50
reported.metric: IC50 (µM)
Number in µM, nothing else.

Past entries and their recorded results:
- line.notation: "CN1CCN(C(=O)CCC(=O)c2ccc3[nH]c4nc(Cl)ccc4c3c2)CC1"
  IC50 [µM]: 5.8
- line.notation: "CN1CCN(CCOc2ccc(-c3ccc4[nH]c5ncc(Cl)cc5c4c3)cc2)CC1"
  IC50 [µM]: 2.4

Sample CCN(CC)CCCOc1ccc(-c2ccc3[nH]c4ncc(Cl)cc4c3c2)cc1 — what was its IC50?
2.6

* * *

# system.tested: Recombinant ALK kinase (Homo sapiens)
# Construct: made in house; host or cells: Sf9 insect cells (baculovirus)
# Sequence (Q9UM73 19-1620): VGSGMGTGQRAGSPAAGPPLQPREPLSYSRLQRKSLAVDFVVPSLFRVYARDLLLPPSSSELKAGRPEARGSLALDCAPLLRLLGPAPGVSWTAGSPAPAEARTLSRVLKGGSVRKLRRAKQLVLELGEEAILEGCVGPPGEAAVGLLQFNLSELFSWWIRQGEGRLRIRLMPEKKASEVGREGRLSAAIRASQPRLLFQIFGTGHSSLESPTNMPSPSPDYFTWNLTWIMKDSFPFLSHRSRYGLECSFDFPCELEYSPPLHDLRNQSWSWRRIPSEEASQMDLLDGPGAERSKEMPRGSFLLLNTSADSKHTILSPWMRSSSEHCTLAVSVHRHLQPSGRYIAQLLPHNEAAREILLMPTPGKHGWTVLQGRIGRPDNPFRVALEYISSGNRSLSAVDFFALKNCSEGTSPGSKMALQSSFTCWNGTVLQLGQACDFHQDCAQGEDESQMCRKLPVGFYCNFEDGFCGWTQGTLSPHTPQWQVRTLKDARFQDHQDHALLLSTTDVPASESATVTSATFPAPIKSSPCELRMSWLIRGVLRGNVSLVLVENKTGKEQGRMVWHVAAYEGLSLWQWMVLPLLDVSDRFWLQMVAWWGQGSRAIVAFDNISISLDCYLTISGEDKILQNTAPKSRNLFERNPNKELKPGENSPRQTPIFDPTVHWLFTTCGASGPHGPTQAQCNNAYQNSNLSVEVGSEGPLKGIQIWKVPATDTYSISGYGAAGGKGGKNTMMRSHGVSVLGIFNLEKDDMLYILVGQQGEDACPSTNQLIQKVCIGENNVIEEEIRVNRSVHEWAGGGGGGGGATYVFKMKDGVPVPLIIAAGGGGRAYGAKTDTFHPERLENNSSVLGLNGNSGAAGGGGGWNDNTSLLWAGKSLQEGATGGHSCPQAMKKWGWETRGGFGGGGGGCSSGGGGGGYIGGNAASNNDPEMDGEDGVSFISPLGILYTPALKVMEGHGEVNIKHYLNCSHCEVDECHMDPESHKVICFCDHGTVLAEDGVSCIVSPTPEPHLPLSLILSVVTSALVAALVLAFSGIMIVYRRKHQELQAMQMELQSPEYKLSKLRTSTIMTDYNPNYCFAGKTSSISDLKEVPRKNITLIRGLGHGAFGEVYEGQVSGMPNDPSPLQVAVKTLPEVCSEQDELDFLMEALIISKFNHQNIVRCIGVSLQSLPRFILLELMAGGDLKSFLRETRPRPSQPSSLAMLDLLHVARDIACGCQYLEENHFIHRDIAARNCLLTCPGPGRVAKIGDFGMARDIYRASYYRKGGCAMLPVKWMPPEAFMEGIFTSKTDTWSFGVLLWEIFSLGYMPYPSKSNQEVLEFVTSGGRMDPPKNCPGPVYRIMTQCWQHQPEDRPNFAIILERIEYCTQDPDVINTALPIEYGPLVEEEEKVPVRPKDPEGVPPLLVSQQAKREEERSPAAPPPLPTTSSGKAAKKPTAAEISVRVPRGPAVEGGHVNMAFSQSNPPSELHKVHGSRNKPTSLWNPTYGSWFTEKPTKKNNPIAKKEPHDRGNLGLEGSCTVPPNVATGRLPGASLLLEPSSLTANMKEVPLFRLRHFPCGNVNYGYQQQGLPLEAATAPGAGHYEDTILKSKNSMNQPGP
# test.name: ALK kinase inhibitory activity, ELISA-based in vitro kinase assay
# Assay type: biochemical
# reported.conditions: purified rALK, 0.3 mM ATP, read-out: ALK IC50
reported.metric: IC50 (µM)

I. CCCC#Cc1ccc2c(n1)[nH]c1ccccc12 [R341, 2-(pent-1-ynyl)-9H-pyrido[2,3-b]indole]
II. COc1ccc2sc(SCC(=O)c3ccc4[nH]c5ncc(Cl)cc5c4c3)nc2c1
III. CN1CCN(C(=O)CCC(=O)c2ccc3[nH]c4nc(Cl)ccc4c3c2)CC1
IV. O=[N+]([O-])/C=C/c1ccc2[nH]c3ncc(Cl)cc3c2c1
Sequence the entries by IC50, beginning with the highest number. Labels, requested order.
II, III, I, IV

* * *

Listed here are molecules together with their documented melting point.

Past entries and their recorded results:
- molecule: "COc1ccc(-c2ccc3c(c2)c2c(/C=C/c4ccccc4)ccnc2n3S(=O)(=O)c2ccccc2)cc1"
  melting point: "190 to 192 °C"
- molecule: "COc1ccc(-c2ccc3c(c2)c2ccc(Cl)nc2n3S(=O)(=O)c2ccccc2)cc1"
  melting point: "176 to 178 °C"
- molecule: "O=C(O)c1ccc2[nH]c3ncc(Cl)cc3c2c1"
  melting point: "> 295 °C"
- molecule: "O=S(=O)(c1ccccc1)n1c2ccc(Br)cc2c2cc(Cl)cnc21"
  melting point: "242 °C"
- molecule: "COc1ccc(-c2ccc3c(c2)c2cc(Cl)cnc2n3S(=O)(=O)c2ccccc2)cc1"
  melting point: "> 220 °C"
- molecule: "c1coc(-c2ccnc3[nH]c4ccccc4c23)c1 [R327, 4-(furan-2-yl)-9H-pyrido[2,3-b]indole]"
  melting point: "> 220 °C"

Sample O=C(O)CCC(=O)c1ccc2[nH]c3ncc(Cl)cc3c2c1 — what was its melting point?
243 °C

Can you check Cc1ccc2c(n1)[nH]c1ccc(C(=O)O)cc12 next?
> 295 °C

Can you check O=S(=O)(c1ccccc1)n1c2ccc(CCc3ccccc3)cc2c2cc(Cl)cnc21 next?
158 to 162 °C

Can you check COc1ccc(-c2ccc3c(c2)c2c(-c4ccc(OC)cc4)ccnc2n3S(=O)(=O)c2ccccc2)cc1 next?
162 to 164 °C

Can you check Clc1ccnc2[nH]c3ccc(Br)cc3c12 [compound 10, 6-bromo-4-chloro-9H-pyrido[2,3-b]indole] next?
> 220 °C

Can you check COc1ccc(-c2ccc3c(c2)c2c(Cl)ccnc2n3S(=O)(=O)c2ccccc2)cc1 next?
209 to 211 °C

Can you check C(=C\c1ccnc2[nH]c3ccccc3c12)/c1ccccc1 next?
> 220 °C

Can you check COc1ccc(-c2ccc3c(c2)c2ccc(-c4ccc(OC)cc4)nc2n3S(=O)(=O)c2ccccc2)cc1 next?
206 to 208 °C

* * *

# System: NPM/ALK positive SUDHL-1 cells
# test.name: Tritiated thymidine uptake cell proliferation assay, SUDHL-1
# Type: cell-based
# reported.conditions: 3[H]-thymidine uptake, 72 h
pIC50: −log10 of the molar value.
reported.metric: pIC50

Past entries and their recorded results:
- compound: "C(=C\\c1cnc2[nH]c3ccc(-c4ccc(CN5CCOCC5)cc4)cc3c2c1)/c1ccccc1"
  reported.measurement: 5.68
- compound: "COc1ccc(-c2ccc3[nH]c4ncc(/C=C/c5ccccc5)cc4c3c2)cc1"
  reported.measurement: 5.70
- compound: "Clc1cnc2[nH]c3ccc(CCc4ccccc4)cc3c2c1"
  reported.measurement: 5.12
- compound: "O=[N+]([O-])c1ccccc1Nc1ccc2c(n1)[nH]c1ccc(/C=C/c3ccccc3)cc12"
  reported.measurement: 5.44
- compound: "O=C(CSc1nc2ccccc2[nH]1)c1ccc2[nH]c3ncc(Cl)cc3c2c1"
  reported.measurement: 6.22
- compound: "CCN(CC)CCCOc1ccc(-c2ccc3[nH]c4ncc(Cl)cc4c3c2)cc1"
  reported.measurement: 5.62
- compound: "O=C(CSc1ccccn1)c1ccc2[nH]c3ncccc3c2c1"
  reported.measurement: 4.62
- compound: "O=C(CSC1=NCCS1)c1ccc2[nH]c3ncc(Cl)cc3c2c1"
  reported.measurement: 6.15
- compound: "CN1CCN(CCOc2ccc(-c3ccc4[nH]c5ncc(Cl)cc5c4c3)cc2)CC1"
  reported.measurement: 5.59
- compound: "O=C(CSc1ccccc1)c1ccc2[nH]c3nc(Cl)ccc3c2c1"
  reported.measurement: 5.24

P. CCN(CC)CCSCC(=O)c1ccc2[nH]c3ncc(Cl)cc3c2c1
Q. COc1ccc(-c2ccc3[nH]c4ncccc4c3c2)cc1
R. COc1ccc(-c2ccc3c(n2)[nH]c2ccccc23)cc1
S. COc1cccc(Nc2cnc3[nH]c4ccc(CCc5ccccc5)cc4c3c2)c1
T. C(#Cc1ccc2c(n1)[nH]c1ccccc12)c1ccccc1 [R342, 2-(phenylethynyl)-9H-pyrido[2,3-b]indole]
Task for the reader: rank each entry by its pIC50, from the minimum upward. Labels, requested order.
R, T, S, Q, P

1. O=[N+]([O-])/C=C/c1ccc2[nH]c3ncc(Cl)cc3c2c1
2. CCCC#Cc1ccc2c(n1)[nH]c1ccccc12 [R341, 2-(pent-1-ynyl)-9H-pyrido[2,3-b]indole]
Compare reported pIC50 values for 1 and 2 . Which is lower? Kindly state the label of the option you pick.
2
(2: 4.32, 1: 6.09)
